Hello, the source for this data is the supplement of paper PMC10567573, in case you need it.

B1: GALNT9 (parent)
chain: FTQSGPIVSRATGRCLEVEMSKDA

Variants of: B1
Measurement description: protein stability index of a GFP-peptide fusion (GPS, HEK-293T) (PSI 1-6); higher = more stable;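 further: lentivirally expressed fusions sorted by FACS into six bins by GFP to DsRed ratio, PSI derived from sequencing read proportions per bin multiplied by bin number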
Measurement parameters: c terminus: a fixed tail appended
Decision: protein stability index compared against 2; not below it gives fulfilled, below it gives not fulfilled.

Exercise: Quick check: does "G5T" have protein stability index greater than or equal to 2?
Solution: fulfilled

Exercise: Quick check: does "A24T" have protein stability index greater than or equal to 2?
Solution: fulfilled

Exercise: Quick check: does "V18N" have protein stability index greater than or equal to 2?
Solution: fulfilled

Exercise: Quick check: does "T2N" have protein stability index greater than or equal to 2?
Solution: fulfilled

Exercise: Quick check: does "E19L" have protein stability index greater than or equal to 2?
Solution: fulfilled

Exercise: Quick check: does "G13Q" have protein stability index greater than or equal to 2?
Solution: not fulfilled

Exercise: Quick check: does "E19N" have protein stability index greater than or equal to 2?
Solution: not fulfilled

Exercise: Quick check: does "R10I" have protein stability index greater than or equal to 2?
Solution: not fulfilled

Exercise: Quick check: does "A11S" have protein stability index greater than or equal to 2?
Solution: not fulfilled

Exercise: Quick check: does "R14C" have protein stability index greater than or equal to 2?
Solution: not fulfilled

Exercise: Quick check: does "F1Q" have protein stability index greater than or equal to 2?
Solution: fulfilled

Exercise: Quick check: does "L16V" have protein stability index greater than or equal to 2?
Solution: fulfilled

Exercise: Quick check: does "G5C" have protein stability index greater than or equal to 2?
Solution: fulfilled

Exercise: Quick check: does "S21E" have protein stability index greater than or equal to 2?
Solution: fulfilled

Exercise: Quick check: does "D23G" have protein stability index greater than or equal to 2?
Solution: not fulfilled

Exercise: Quick check: does "S9F" have protein stability index greater than or equal to 2?
Solution: fulfilled

Exercise: Quick check: does "F1E" have protein stability index greater than or equal to 2?
Solution: fulfilled

Exercise: Quick check: does "A24E" have protein stability index greater than or equal to 2?
Solution: fulfilled

Exercise: Quick check: does "E17A" have protein stability index greater than or equal to 2?
Solution: not fulfilled

Exercise: Quick check: does "I7P" have protein stability index greater than or equal to 2?
Solution: fulfilled

Exercise: Quick check: does "R14I" have protein stability index greater than or equal to 2?
Solution: fulfilled

Exercise: Quick check: does "R10G" have protein stability index greater than or equal to 2?
Solution: fulfilled

Exercise: Quick check: does "V18F" have protein stability index greater than or equal to 2?
Solution: fulfilled

Exercise: Quick check: does "R14A" have protein stability index greater than or equal to 2?
Solution: fulfilled

Exercise: Quick check: does "V18L" have protein stability index greater than or equal to 2?
Solution: not fulfilled

Exercise: Quick check: does "S4E" have protein stability index greater than or equal to 2?
Solution: fulfilled

Exercise: Quick check: does "S4C" have protein stability index greater than or equal to 2?
Solution: not fulfilled

Exercise: Quick check: does "F1D" have protein stability index greater than or equal to 2?
Solution: fulfilled

Exercise: Quick check: does "G5Q" have protein stability index greater than or equal to 2?
Solution: fulfilled

Exercise: Quick check: does "M20Y" have protein stability index greater than or equal to 2?
Solution: fulfilled

Exercise: Quick check: does "M20S" have protein stability index greater than or equal to 2?
Solution: fulfilled

Exercise: Quick check: does "A11K" have protein stability index greater than or equal to 2?
Solution: not fulfilled

Exercise: Quick check: does "T2C" have protein stability index greater than or equal to 2?
Solution: fulfilled

Exercise: Quick check: does "S21N" have protein stability index greater than or equal to 2?
Solution: not fulfilled

Exercise: Quick check: does "V8I" have protein stability index greater than or equal to 2?
Solution: fulfilled

Exercise: Quick check: does "V18Y" have protein stability index greater than or equal to 2?
Solution: not fulfilled

Exercise: Quick check: does "K22C" have protein stability index greater than or equal to 2?
Solution: fulfilled

Exercise: Quick check: does "S21T" have protein stability index greater than or equal to 2?
Solution: fulfilled

Exercise: Quick check: does "V18Q" have protein stability index greater than or equal to 2?
Solution: fulfilled

Exercise: Quick check: does "T12S" have protein stability index greater than or equal to 2?
Solution: not fulfilled

Exercise: Quick check: does "C15D" have protein stability index greater than or equal to 2?
Solution: fulfilled

Exercise: Quick check: does "L16N" have protein stability index greater than or equal to 2?
Solution: fulfilled

Exercise: Quick check: does "L16D" have protein stability index greater than or equal to 2?
Solution: fulfilled

Exercise: Quick check: does "E17G" have protein stability index greater than or equal to 2?
Solution: fulfilled
